The following molecules are listed with their measured logP values.
Would you mind answering with just the numeric figure?

Take a look at these entries with their results.
1) Clc1ccc(Cl)c(-c2cc(Cl)c(Cl)c(Cl)c2Cl)c1
6.75
2) Clc1cc(Cl)c(-c2ccc(Cl)c(Cl)c2Cl)c(Cl)c1
6.58
3) Clc1ccccc1-c1c(Cl)ccc(Cl)c1Cl
4.84

# input Can you look up the measured logP of Clc1ccc(Cl)c(-c2ccccc2Cl)c1 for me?
# output 5.34

# input Can you look up the measured logP of Clc1cccc(Cl)c1-c1c(Cl)cccc1Cl for me?
# output 5.24

# input Can you look up the measured logP of Clc1cccc(-c2c(Cl)c(Cl)cc(Cl)c2Cl)c1 for me?
# output 6.41

# input Can you look up the measured logP of Clc1cc(Cl)c(-c2c(Cl)c(Cl)c(Cl)c(Cl)c2Cl)c(Cl)c1 for me?
# output 7.48

# input Can you look up the measured logP of Clc1ccc(Cl)c(-c2ccccc2)c1 for me?
# output 5.1

# input Can you look up the measured logP of Clc1cccc(-c2cccc(Cl)c2Cl)c1Cl for me?
# output 5.67

# input Can you look up the measured logP of Clc1ccc(-c2cc(Cl)c(Cl)cc2Cl)cc1 for me?
# output 6.1

# input Can you look up the measured logP of Clc1ccc(-c2c(Cl)c(Cl)c(Cl)c(Cl)c2Cl)cc1Cl for me?
# output 7.08

# input Can you look up the measured logP of Clc1cc(Cl)c(-c2c(Cl)c(Cl)c(Cl)c(Cl)c2Cl)cc1Cl for me?
# output 7.49

# input Can you look up the measured logP of Clc1ccc(Cl)c(-c2c(Cl)c(Cl)cc(Cl)c2Cl)c1Cl for me?
# output 6.41

# input Can you look up the measured logP of Clc1ccc(-c2cc(Cl)ccc2Cl)c(Cl)c1 for me?
# output 5.87

# input Can you look up the measured logP of Clc1cc(Cl)c(-c2ccccc2Cl)cc1Cl for me?
# output 5.69

# input Can you look up the measured logP of Clc1cc(Cl)cc(-c2c(Cl)cc(Cl)cc2Cl)c1 for me?
# output 6.43

# input Can you look up the measured logP of Clc1ccc(Cl)c(-c2ccccc2)c1Cl for me?
# output 5.44

# input Can you look up the measured logP of Clc1cc(Cl)c(-c2cccc(Cl)c2Cl)c(Cl)c1 for me?
# output 6.04

====

PROPERTY: logP

Take a look at these entries with their results.
1. Clc1cc(Cl)c(-c2ccc(Cl)c(Cl)c2Cl)cc1Cl
6.72
2. Clc1ccc(-c2cc(Cl)cc(Cl)c2Cl)cc1
6.1
3. Clc1cc(-c2cc(Cl)c(Cl)c(Cl)c2Cl)c(Cl)c(Cl)c1Cl
7.62
4. Clc1cc(-c2c(Cl)cc(Cl)c(Cl)c2Cl)c(Cl)c(Cl)c1Cl
7.43
5. Clc1cc(Cl)c(-c2c(Cl)c(Cl)cc(Cl)c2Cl)cc1Cl
6.92
6. Clc1ccc(Cl)c(-c2c(Cl)c(Cl)c(Cl)c(Cl)c2Cl)c1
6.99
7. Clc1cc(Cl)c(-c2cc(Cl)ccc2Cl)c(Cl)c1
6.11
8. Clc1cc(Cl)cc(-c2ccccc2Cl)c1
5.71

Read the next record carefully.
# input Can you look up the measured logP of Clc1ccc(-c2c(Cl)ccc(Cl)c2Cl)cc1 for me?
# output 5.76

====

PROPERTY: logP
Would you mind answering with just the numeric figure?

Take a look at these entries with their results.
1. Clc1cccc(-c2c(Cl)cc(Cl)cc2Cl)c1
6.03
2. Clc1cccc(-c2cc(Cl)cc(Cl)c2)c1
5.81
3. Clc1cc(Cl)c(-c2ccc(Cl)c(Cl)c2)c(Cl)c1
6.4
4. Clc1ccc(-c2c(Cl)c(Cl)cc(Cl)c2Cl)cc1
6.39
5. Clc1cc(-c2c(Cl)ccc(Cl)c2Cl)c(Cl)c(Cl)c1Cl
6.85

# input Can you look up the measured logP of Clc1cc(-c2c(Cl)c(Cl)cc(Cl)c2Cl)cc(Cl)c1Cl for me?
# output 7.21

# input Can you look up the measured logP of Clc1cc(-c2c(Cl)c(Cl)cc(Cl)c2Cl)c(Cl)c(Cl)c1Cl for me?
# output 7.35

====

PROPERTY: logP
Would you mind answering with just the numeric figure?

Take a look at these entries with their results.
1. Clc1ccc(-c2ccc(Cl)c(Cl)c2)c(Cl)c1
5.98
2. Clc1cc(Cl)cc(-c2cc(Cl)cc(Cl)c2)c1
6.6
3. Clc1ccc(-c2ccccc2Cl)cc1
5.09

# input Can you look up the measured logP of Clc1cccc(-c2cc(Cl)c(Cl)c(Cl)c2Cl)c1 for me?
# output 6.92

# input Can you look up the measured logP of Clc1cc(Cl)cc(-c2c(Cl)c(Cl)c(Cl)c(Cl)c2Cl)c1 for me?
# output 7.21

# input Can you look up the measured logP of Clc1cccc(-c2ccc(Cl)cc2Cl)c1 for me?
# output 5.54

====

The following compounds are listed with their measured logP values.
Would you mind answering with just the numeric figure?

Take a look at these entries with their results.
1) Clc1cc(Cl)c(-c2c(Cl)cc(Cl)c(Cl)c2Cl)c(Cl)c1Cl
7.21
2) Clc1ccc(-c2c(Cl)cc(Cl)c(Cl)c2Cl)cc1
6.44
3) Clc1cc(Cl)c(Cl)c(-c2c(Cl)c(Cl)cc(Cl)c2Cl)c1Cl
7.16
4) Clc1cc(Cl)c(Cl)c(-c2c(Cl)c(Cl)c(Cl)c(Cl)c2Cl)c1
7.43
5) Clc1ccc(-c2ccccc2Cl)c(Cl)c1
5.39

# input Can you look up the measured logP of Clc1ccccc1-c1ccccc1 for me?
# output 4.42

# input Can you look up the measured logP of Clc1ccc(-c2ccc(Cl)cc2Cl)c(Cl)c1 for me?
# output 5.94

# input Can you look up the measured logP of Clc1cccc(-c2cc(Cl)ccc2Cl)c1 for me?
# output 5.65

# input Can you look up the measured logP of Clc1ccc(-c2ccc(Cl)c(Cl)c2)cc1 for me?
# output 5.78

====

The following compounds are listed with their measured logP values.
Would you mind answering with just the numeric figure?

Take a look at these entries with their results.
1) Clc1ccccc1-c1cc(Cl)c(Cl)c(Cl)c1Cl
6.39
2) Clc1cc(Cl)c(-c2c(Cl)c(Cl)cc(Cl)c2Cl)c(Cl)c1
6.78
3) Clc1ccc(-c2ccccc2Cl)cc1Cl
5.71
4) Clc1cc(-c2c(Cl)c(Cl)c(Cl)c(Cl)c2Cl)cc(Cl)c1Cl
7.62
5) Clc1cc(Cl)c(-c2cc(Cl)c(Cl)c(Cl)c2Cl)c(Cl)c1
6.92

# input Can you look up the measured logP of Clc1cccc(-c2ccccc2)c1Cl for me?
# output 4.99

# input Can you look up the measured logP of Clc1ccc(-c2cccc(Cl)c2Cl)c(Cl)c1 for me?
# output 5.72

# input Can you look up the measured logP of Clc1ccc(-c2c(Cl)cc(Cl)c(Cl)c2Cl)c(Cl)c1Cl for me?
# output 6.99

====

// not satisfied strictly below 6 in logP; satisfied otherwise

# input hey, is logP for this one >= 6? Clc1cccc(-c2cc(Cl)c(Cl)c(Cl)c2Cl)c1Cl
# output satisfied

# input hey, is logP for this one >= 6? Clc1ccc(Cl)c(-c2c(Cl)cccc2Cl)c1
# output not satisfied

====

// class 0 strictly below 6 in logP; class 1 otherwise

Take a look at these entries with their results.
1) Clc1ccc(Cl)c(-c2cc(Cl)cc(Cl)c2Cl)c1
class 1
2) Clc1ccc(Cl)c(-c2ccc(Cl)c(Cl)c2Cl)c1
class 1
3) Clc1ccc(-c2c(Cl)cccc2Cl)c(Cl)c1
class 0

# input hey, is logP for this one >= 6? Clc1ccc(-c2ccccc2)c(Cl)c1
# output class 0

# input hey, is logP for this one >= 6? Clc1ccc(-c2c(Cl)cccc2Cl)cc1Cl
# output class 0

# input hey, is logP for this one >= 6? Clc1cc(Cl)cc(-c2ccccc2)c1
# output class 0

# input hey, is logP for this one >= 6? Clc1ccc(-c2cccc(Cl)c2)cc1
# output class 0

====

PROPERTY: logP
Would you mind answering with just the numeric figure?

Take a look at these entries with their results.
1) Clc1ccccc1-c1ccc(Cl)c(Cl)c1Cl
5.79
2) Clc1cc(-c2c(Cl)c(Cl)c(Cl)c(Cl)c2Cl)c(Cl)c(Cl)c1Cl
7.94
3) Clc1ccc(-c2c(Cl)c(Cl)cc(Cl)c2Cl)cc1Cl
6.78

# input Can you look up the measured logP of Clc1ccc(-c2ccccc2)cc1 for me?
# output 4.63

# input Can you look up the measured logP of Clc1ccccc1-c1cc(Cl)c(Cl)c(Cl)c1 for me?
# output 5.98

# input Can you look up the measured logP of Clc1ccc(-c2c(Cl)c(Cl)cc(Cl)c2Cl)c(Cl)c1Cl for me?
# output 6.73

# input Can you look up the measured logP of Clc1ccc(-c2cccc(Cl)c2Cl)cc1Cl for me?
# output 5.85
